Every entry's value here was drawn from ChEMBL document CHEMBL3988442.

biological target: Arginase-2, mitochondrial (Homo sapiens) (UniProt P78540); experiment: in vitro enzyme assay to detect the production of urea directly proportional to the activity of Arginase II; type: functional; set-up: scale not given: in the data most compounds retested in dose-response had high values; details: 33.3 µM
Sequence (P78540 whole entry): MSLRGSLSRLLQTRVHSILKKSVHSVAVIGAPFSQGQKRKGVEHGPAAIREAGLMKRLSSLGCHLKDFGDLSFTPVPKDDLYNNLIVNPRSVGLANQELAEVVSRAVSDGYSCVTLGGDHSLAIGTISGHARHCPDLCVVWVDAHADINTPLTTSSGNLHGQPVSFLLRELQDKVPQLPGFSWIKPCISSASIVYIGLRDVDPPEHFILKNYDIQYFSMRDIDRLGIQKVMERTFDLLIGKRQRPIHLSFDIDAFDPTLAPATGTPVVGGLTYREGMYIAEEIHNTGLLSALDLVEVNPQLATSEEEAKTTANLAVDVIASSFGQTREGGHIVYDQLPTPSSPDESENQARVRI
As shown below, each of these molecules has a reported Percent Effect value.
Dear colleague, please return just the value in %, with no unit written.

Look up Percent Effect: CCc1nc(C2CCCN2Cc2nc3ccccc3o2)no1 (stereo unspecified)
2.74

====

molecular target: Ubiquitin-activating enzyme e1, putative (Leishmania donovani (strain BPK282A1)) (UniProt E9BSI1); experiment: Leishmania donovani Ubiquitin Activating Enzyme (LdE1); assay type: functional; set-up: scale not given: direction of the effect not stated beside the values; details: 30 µM
Sequence (E9BSI1 as listed by the source): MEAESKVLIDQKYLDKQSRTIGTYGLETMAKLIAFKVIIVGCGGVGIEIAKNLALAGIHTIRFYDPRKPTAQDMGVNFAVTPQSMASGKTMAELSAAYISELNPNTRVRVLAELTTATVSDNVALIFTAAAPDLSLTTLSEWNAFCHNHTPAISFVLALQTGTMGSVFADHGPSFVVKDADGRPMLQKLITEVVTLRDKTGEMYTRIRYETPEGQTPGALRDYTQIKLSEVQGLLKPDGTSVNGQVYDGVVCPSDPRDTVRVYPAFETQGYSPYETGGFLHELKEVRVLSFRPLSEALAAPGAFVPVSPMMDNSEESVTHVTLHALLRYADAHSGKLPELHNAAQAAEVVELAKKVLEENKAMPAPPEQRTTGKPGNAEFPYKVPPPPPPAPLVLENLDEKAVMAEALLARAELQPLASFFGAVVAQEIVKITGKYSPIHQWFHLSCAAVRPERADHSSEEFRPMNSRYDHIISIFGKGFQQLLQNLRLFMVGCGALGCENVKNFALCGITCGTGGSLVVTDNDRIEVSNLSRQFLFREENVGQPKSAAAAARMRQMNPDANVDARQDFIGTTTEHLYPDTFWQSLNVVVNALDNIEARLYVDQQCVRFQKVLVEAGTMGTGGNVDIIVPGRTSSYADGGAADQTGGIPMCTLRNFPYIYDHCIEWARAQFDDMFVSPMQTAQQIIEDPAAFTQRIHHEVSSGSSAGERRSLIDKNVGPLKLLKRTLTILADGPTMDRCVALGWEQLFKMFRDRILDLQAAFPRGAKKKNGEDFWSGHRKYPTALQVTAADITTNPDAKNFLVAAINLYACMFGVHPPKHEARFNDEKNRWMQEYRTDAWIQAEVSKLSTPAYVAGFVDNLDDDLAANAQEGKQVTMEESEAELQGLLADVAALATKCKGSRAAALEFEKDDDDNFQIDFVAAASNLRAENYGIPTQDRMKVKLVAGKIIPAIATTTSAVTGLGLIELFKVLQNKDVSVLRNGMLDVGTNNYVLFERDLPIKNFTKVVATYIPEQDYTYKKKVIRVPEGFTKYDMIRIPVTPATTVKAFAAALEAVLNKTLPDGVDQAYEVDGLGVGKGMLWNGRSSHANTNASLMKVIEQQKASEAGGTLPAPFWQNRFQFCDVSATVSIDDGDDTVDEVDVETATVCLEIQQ
Entries with a potency or affinity are not part of this list.
As shown below, each of these molecules has a reported Percent Effect value.
Dear colleague, please return just the value in %, with no unit written.

Below, each entry is followed by its recorded Percent Effect result.
                                   molecule  value_reported
0  Cc1occc1C(=O)N1CCC2(CC1)CC(c1cccnc1)C(=O)N2C (configuration not stated)            10.7
1   O=C(c1ccsc1)N1CCc2c(COCc3ccncc3)cncc2C1           -8.22
2  COC[C@@]12CCO[C@@H]1CCN(C(=O)Cc1ccccc1F)C2            19.2
3  CN1CCN(C[C@@H]2CN(C(=O)c3ccccc3C#N)C[C@@H]2CO)CC1            10.8
4  Cn1cnnc1S(=O)(=O)C1CCN(S(=O)(=O)c2ccc(F)c(Cl)c2)CC1           -5.48
5  CCCS(=O)(=O)NC(C)C(=O)NCc1ccc(N2CCCC2)nc1 (configuration not stated)            16.2
6  Cc1n[nH]c(C(=O)NCc2ccnc(OCC(F)(F)F)c2)c1Br            23.7
7  Cn1cc(CN2CC[C@H]3OCC[C@@H](C(=O)N4CCCCO4)[C@@H]3C2)cn1            9.33

Look up Percent Effect: CCOC(C)c1nc(CN2CCC(CNC(C)=O)CC2)cs1 (configuration not stated)
0

Look up Percent Effect: COCc1nc(C(=O)NS(=O)(=O)c2cc(F)ccc2F)cs1
-2.56

Look up Percent Effect: CNc1cncc(C2CCCN2C(=O)c2ccc3oc(C)cc3c2)n1 (configuration not stated)
12

Look up Percent Effect: COc1cc(CNCc2c(C)nn(C)c2N(C)C)ccc1C
-5.41

====

biological target: Chromo domain-containing protein 1 (Saccharomyces cerevisiae (strain ATCC 204508 / S288c) (Baker's yeast)) (UniProt P32657); assay: ScCHD-1 Enzyme Inhibition Assay; assay type: functional; parameters: scale not given: in the data most compounds retested in dose-response had high values; conditions: 30 µM
Sequence (P32657 whole entry, the tested form may be a part): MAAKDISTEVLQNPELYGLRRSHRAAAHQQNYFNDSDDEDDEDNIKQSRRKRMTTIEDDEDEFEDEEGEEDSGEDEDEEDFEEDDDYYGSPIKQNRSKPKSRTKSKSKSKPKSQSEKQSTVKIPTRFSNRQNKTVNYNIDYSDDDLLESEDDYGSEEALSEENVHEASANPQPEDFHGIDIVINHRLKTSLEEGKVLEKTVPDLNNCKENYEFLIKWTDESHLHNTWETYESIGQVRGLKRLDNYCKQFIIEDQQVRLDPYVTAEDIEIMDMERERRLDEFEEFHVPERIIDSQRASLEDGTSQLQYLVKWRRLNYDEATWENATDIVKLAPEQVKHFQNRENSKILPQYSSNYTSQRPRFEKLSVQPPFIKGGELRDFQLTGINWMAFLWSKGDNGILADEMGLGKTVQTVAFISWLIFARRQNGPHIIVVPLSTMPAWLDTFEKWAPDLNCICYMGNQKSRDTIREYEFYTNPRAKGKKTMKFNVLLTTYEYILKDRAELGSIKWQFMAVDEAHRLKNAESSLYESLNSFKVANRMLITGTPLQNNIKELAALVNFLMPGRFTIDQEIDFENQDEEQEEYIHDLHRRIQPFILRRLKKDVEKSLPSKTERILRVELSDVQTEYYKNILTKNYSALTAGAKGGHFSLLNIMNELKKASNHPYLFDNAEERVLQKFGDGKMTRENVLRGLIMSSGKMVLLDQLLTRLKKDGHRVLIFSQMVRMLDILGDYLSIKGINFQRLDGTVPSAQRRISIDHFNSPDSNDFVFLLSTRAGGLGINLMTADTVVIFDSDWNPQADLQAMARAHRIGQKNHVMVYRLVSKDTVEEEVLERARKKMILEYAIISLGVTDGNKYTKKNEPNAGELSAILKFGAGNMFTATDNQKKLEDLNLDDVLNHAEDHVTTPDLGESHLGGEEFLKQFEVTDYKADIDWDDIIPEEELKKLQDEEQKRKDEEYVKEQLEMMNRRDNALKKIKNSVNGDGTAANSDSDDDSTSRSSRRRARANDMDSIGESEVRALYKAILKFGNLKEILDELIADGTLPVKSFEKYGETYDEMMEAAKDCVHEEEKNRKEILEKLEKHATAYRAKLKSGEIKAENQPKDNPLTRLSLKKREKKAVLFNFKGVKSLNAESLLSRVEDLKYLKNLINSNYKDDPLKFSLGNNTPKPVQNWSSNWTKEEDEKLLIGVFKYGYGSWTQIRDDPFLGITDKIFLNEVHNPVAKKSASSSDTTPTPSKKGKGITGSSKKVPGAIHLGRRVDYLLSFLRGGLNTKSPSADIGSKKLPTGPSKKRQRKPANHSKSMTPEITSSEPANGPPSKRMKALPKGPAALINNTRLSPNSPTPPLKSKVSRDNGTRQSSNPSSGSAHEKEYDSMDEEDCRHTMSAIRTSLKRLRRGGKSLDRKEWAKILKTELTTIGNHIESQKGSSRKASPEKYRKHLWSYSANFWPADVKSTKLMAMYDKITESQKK
As shown below, each of these molecules has a reported Percent Effect value.
Dear colleague, please return just the value in %, with no unit written.

In [3]: df
Out[3]:
                                 molecule  value_reported
0      O=C(CN(C1=NCCCC1)c1ccccc1)c1ccccc1           -5.81
1  O=C(c1cscn1)N1CCC2(CCN(Cc3nccs3)C2)CC1            5.03
2       Cc1cccnc1NC(=O)CSc1ccc2c(c1)OCCO2           -2.02

Look up Percent Effect: Cc1cn2c(n1)CCC(NC(=O)c1nc(C)ncc1Cl)C2 (stereo unspecified)
-23.3

Look up Percent Effect: COCCOCc1cccc(NC(=O)N2CCCC2c2ccncc2)c1 (stereo unspecified)
-20.8

Look up Percent Effect: CCO[C@H]1CO[C@@]2(CCCN(S(=O)(=O)c3ccccc3)C2)C1
6.62

====

As shown below, each of these compounds has a reported Percent Effect value.
biological target: Chromo domain-containing protein 1 (Saccharomyces cerevisiae (strain ATCC 204508 / S288c) (Baker's yeast)); assay: ScCHD-1 Enzyme Inhibition Assay; format: functional; parameters: scale not given: in the data most compounds retested in dose-response had high values; details: 30 µM
Param answer (str): number followed by unit.

Below, each entry is followed by its recorded Percent Effect result.
                                   compound  value_reported
0    CCCc1c(C(=O)NC2CCCC2)nnn1-c1ccc(OC)cc1          -16.8%
1  CCc1noc(C(C)N(C)CC(=O)Nc2cccc(C)n2)n1 (stereo unspecified)           2.92%
2  Cc1nc(C)n(CC2CCCN(CCOc3cccc(C#N)c3)C2)n1 (stereo unspecified)          -4.16%

Look up Percent Effect: COCCN1CCCC12CCN(C(=O)CC1CCCC1)CC2
-2.58%

Look up Percent Effect: CCOc1ccnc(N2CCN(C(=O)c3cn[nH]c3CC)CC2)n1
-4.33%

Look up Percent Effect: CCOCC(=O)N1CCC(Oc2ccc(Cl)cn2)CC1
-8.06%

====

As shown below, each of these compounds has a reported Percent Effect value.
test system: Trypanosoma cruzi; assay: Trypanosoma cruzi phosphomannomutase and mannose-1-phosphate guanylyltransferase assay; assay type: functional; parameters: scale not given: direction of the effect not stated beside the values; settings: 10 µM
Dear colleague, please return just the value in %, with no unit written.

Below, each entry is followed by its recorded Percent Effect result.
                                   compound  property_measured  value_reported
0  Cc1cc(S(=O)(=O)N2CCc3ccc(F)cc32)cc(C(=O)O)c1C     Percent Effect           -1.81
1  Cc1cc(C)n(CC2CCCCN2CCCS(N)(=O)=O)n1 (centres undefined)     Percent Effect           -2.01

Look up Percent Effect: Cc1nc(NC(=O)CNC(=O)c2c(F)cccc2Cl)n[nH]1
3.21

Look up Percent Effect: Cc1cc(CN2CC[C@H]3C[C@H](C(=O)N4CCC(C)CC4)O[C@H]3C2)no1
-1.07

Look up Percent Effect: CN(Cc1ccco1)Cc1cncc2c1CCN(c1ncccn1)C2
3.86

Look up Percent Effect: O=C(CCc1ccccc1)Nc1ncccc1OC(F)F
-3.4

Look up Percent Effect: Cn1ccnc1CN1CCN(CC(O)c2cccc(F)c2)CC1 (centres undefined)
-0.49

Look up Percent Effect: CN(C)C(=O)[C@@H]1C[C@@H]2CCN(Cc3ccc4c(c3)OCO4)C[C@@H]2O1
-1.07

Look up Percent Effect: c1ccc(Cc2noc(CNC3CCc4ncnn4C3)n2)cc1 (centres undefined)
3.81

Look up Percent Effect: Cn1cc(CN2CCCC3(CCN(Cc4cccnc4)C3=O)C2)cn1 (centres undefined)
3.81

Look up Percent Effect: Cc1nc(CN2CCCC(CCc3c(F)cccc3F)C2)c[nH]1 (centres undefined)
9.6

Look up Percent Effect: Cn1nc(CNC(=O)c2ccc(Cl)cc2)c2c1CCOC2
0.0986

====

Target: Proteasome subunit beta (Trypanosoma cruzi) (UniProt O96673)
Sequence (whole entry): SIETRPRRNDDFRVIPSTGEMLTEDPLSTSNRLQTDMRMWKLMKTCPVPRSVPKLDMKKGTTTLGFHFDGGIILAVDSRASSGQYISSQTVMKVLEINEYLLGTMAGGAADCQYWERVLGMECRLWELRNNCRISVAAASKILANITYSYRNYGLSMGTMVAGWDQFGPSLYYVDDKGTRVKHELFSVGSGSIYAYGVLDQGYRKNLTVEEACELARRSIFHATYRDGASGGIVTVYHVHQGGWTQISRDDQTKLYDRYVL
Assay: Trypanosoma cruzi proteasome chymotrypsin-like activity (TcProtChymo) assay. Further: in the data most compounds retested in dose-response had high values.
Assay type: functional
Set-up: scale not given: direction of the effect not stated beside the values
Settings: 9.37 µM
property.measured: Percent Effect (%)
Dear colleague, please return just the value in %, with no unit written.

Below, each entry is followed by its recorded Percent Effect result.
In [3]: df
Out[3]:
                                   compound  value_reported
0  CCN(CC)CCNC(=O)c1ccn(COc2cc(C)cc(C)c2)n1            21.4
1   CCOc1ncccc1NC(=O)N1CCN(c2cccc(C)c2C)CC1            4.49
2  CC(C(=O)N1CCCC1)N1CCC(c2nccn2CC2CCC2)CC1 (stereo unspecified)            1.71
3  NC(=O)C1CN(C(=O)Nc2ccccc2-c2cccs2)CCO1 (stereo unspecified)           -3.23
4  CCn1cnnc1C1CCN(C(=O)C(OC)c2ccccc2)CC1 (stereo unspecified)            17.9

Kindly consider the entry below.
Look up Percent Effect: CC(C)c1ccc(C(O)Cn2c(=O)c(C#N)cn(C3CC3)c2=O)cc1 (stereo unspecified)
0.334

====

target: Arginase-2, mitochondrial (Homo sapiens) (UniProt P78540); test: in vitro enzyme assay to detect the production of urea directly proportional to the activity of Arginase II; format: functional; design: scale not given: in the data most compounds retested in dose-response had high values; conditions: 33.3 µM
property.measured: Percent Effect (%)
Dear colleague, please return just the value in %, with no unit written.

Below, each entry is followed by its recorded Percent Effect result.
>>> print(df.to_string())
                                   molecule  value_reported
0  Cc1ccc(C(=O)N2CCC3(CC2)CCN(CCN(C)C)C3=O)cn1          -0.457
1  CC(CNC(=O)N1CCN(CC(F)F)CC1)Cc1cccs1 (stereo unspecified)            2.08
2  c1ccc(Cn2cc3c(n2)C(COCC2CC2)OCC3)nc1 (stereo unspecified)            3.23
3   O=C(NCC1CC1)N1CCN(Cc2ccc3c(c2)OCCO3)CC1            1.08
4  CC(=O)N1CCN(CCNS(=O)(=O)c2ccc(C)c(F)c2)CC1            1.18
5  CCCc1nc(C)c(C(=O)NS(=O)(=O)c2ccc(C#N)cc2)s1           0.476
6  CNc1cc(C2CCCN2Cc2ccccc2OCC(=O)O)ccn1 (stereo unspecified)           0.232
7  CCOc1ccc(C(C)NC(=O)N2CCC(C(N)=O)CC2)cc1OC (stereo unspecified)            1.43

Query Percent Effect on Arginase-2, mitochondrial (Homo sapiens) (UniProt P78540) for Cc1cc(C)c2nc(CN3CCCC(c4cc[nH]n4)C3)cc(O)c2c1 (stereo unspecified)
0

Query Percent Effect on Arginase-2, mitochondrial (Homo sapiens) (UniProt P78540) for O=C1CC(c2ccc(C(=O)O)cc2)c2ncn(-c3cccc(F)c3)c2N1 (stereo unspecified)
7.57

Query Percent Effect on Arginase-2, mitochondrial (Homo sapiens) (UniProt P78540) for CCCSCC(=O)NS(=O)(=O)c1ccc2c(c1)OCCO2
3.45
